Data provenance is the supplement of paper PMC11451515.

Test system: P12-Ichikawa
Assay Method Text: cell viability relative to DMSO control; higher = less cytotoxic
Condition Set: HPLM + 10% dialyzed FBS; 48 h; 0.000781 µM
Reported Property: cell viability (%)

* O=C(NC1CCNCC1)c1n[nH]cc1NC(=O)c1c(Cl)cccc1Cl | 106
* COCCOC(=O)C/1=C(C)/NC/2=C(C1C3=CC=CC(=C3)O)/C(=O)CC(C2)C4=C(OC)C=CC=C4 (stereo not given) | 94.3
* C[C@H](NC(=O)C(=O)Nc1ccccc1C(C)(C)C)C(=O)N[C@@H](CC(=O)O)C(=O)COc1c(F)c(F)cc(F)c1F | 107
* COc1cc2c(Nc3ccc(NC(=O)c4ccccc4)cc3)ncnc2cc1OCCCN1CCOCC1 | 116
* Cc1c[nH]c(/C=C2\C(=O)Nc3ccccc32)c1CCC(=O)O | 109

----------
Listed compounds paired with reported cell viability
System: NOMO1
Assay Method Text: cell viability relative to DMSO control; higher = less cytotoxic
Condition Set: HPLM + 10% dialyzed FBS; 48 h; 15.4 µM
Reported Property: cell viability (%)

• C[C@@H]1C[C@H]2[C@@H]3\C=C(C)/C4=C/C5=C(C[C@]4(C)[C@H]3[C@@H](O)C[C@]2(C)[C@@]1(O)C(=O)COC(C)=O)C=N[N]5C6=CC=CC=C6 = 108
• Cc1cc2c(C(C)C)c(O)c(O)c(C=O)c2c(O)c1-c1c(C)cc2c(C(C)C)c(O)c(O)c(C=O)c2c1O = 100
• CCCCCCCCCCCC(CC1OC(=O)C1CCCCCC)OC(=O)C(CC(C)C)NC=O (stereo not drawn) = 98.8
• O=C1Nc2ccccc2/C1=C1\Nc2ccccc2C1=O = 102
• CCNC(=O)C[C@@H]1\N=C(C2=CC=C(Cl)C=C2)/C3=C(C=CC(=C3)OC)[N]4C(=NN=C14)C = 29
• NC(=O)N1c2ccccc2CC(=O)c2ccccc21 = 143
• COc1cc2nccc(Oc3ccc(NC(=O)C4(C(=O)Nc5ccc(F)cc5)CC4)cc3)c2cc1OC = 69.8
• CC(C)(C)/[N+]([O-])=C/c1ccc([S+](=O)([O-])[O][Na])cc1[S+](=O)([O-])[O][Na] = 119

----------
Catalogue of AUC of viability dose-response curve readings, one per entry.
Test system: NOMO1
Assay Method Text: AUC of viability dose-response curve (% viability x log10 dose units); higher = less sensitive
Condition Set: RPMI 5 mM glucose + 10% FBS; 48 h
Reported Property: AUC of viability dose-response curve

- CCNC(=O)C[C@@H]1\N=C(C2=CC=C(Cl)C=C2)/C3=C(C=CC(=C3)OC)[N]4C(=NN=C14)C: 392
- CC(=O)N1CCN(c2ccc(OCc3nn(C)c(C)c3-c3cccc4c(CCCOc5cc(C)c(Cl)c(C)c5)c(C(=O)O)n(Cc5cccnc5)c34)cc2)CC1: 471
- Nc1nc(-c2nn(Cc3ccccc3F)c3ncccc23)nc(N)c1N1CCOCC1: 458
- CN(C)CCN(C)CCc1ccc(Cl)c(Cl)c1: 473
- C[N]1C=NC=C1[C@@](N)(C2=CC=C(Cl)C=C2)C3=CC=C4N(C)C(=O)\C=C(\C5=CC=CC(=C5)Cl)C4=C3: 430
- Fc1ccc(C(c2ccc(F)cc2)N2CCN(C/C=C/c3ccccc3)CC2)cc1: 467
- CSC1=CC(=CC=C1)NC2=NC3=C(C=N2)/C=C(C(=O)N3C)/C4=C(Cl)C=CC=C4Cl: 467
- COCCOC(=O)C/1=C(C)/NC/2=C(C1C3=CC=CC(=C3)O)/C(=O)CC(C2)C4=C(OC)C=CC=C4 (stereo not drawn): 469
- CCC[C@@H]1C[C@@H](C(=O)N[C@@H]([C@H]2O[C@H](SC)[C@H](O)[C@@H](O)[C@H]2O)[C@@H](C)O)N(C)C1.Cl: 463
- COc1ccc(/C=C\c2cc(OC)c(OC)c(OC)c2)cc1O: 126
- C\C1=N\N=C(\C2=CC=C(N)C=C2)C3=CC4=C(OCO4)C=C3C1: 471
- O=C(O)[C@H](Cc1c[nH]c2ccccc12)N1C(=O)c2ccccc2C1=O: 426
- Cc1[nH]c(/C=C2\C(=O)Nc3ccc([S+](=O)([O-])N(C)c4cccc(Cl)c4)cc32)c(C)c1C(=O)N1CCN(C)CC1: 462
- COC[C@H](NC(=O)c1cnc(C)s1)C(=O)N[C@@H](COC)C(=O)N[C@@H](Cc1ccccc1)C(=O)[C@@]1(C)CO1: 273
- COc1ccc(CCN2CCN(CCCc3ccccc3)CC2)cc1OC: 444
- Cn1c2ccccc2c2c3c(c4c5ccccc5n(CCC#N)c4c21)CNC3=O: 376
- Fc1cc(-c2cccc3ncc(-c4cnn(C5CCNCC5)c4)nc23)cc(F)c1CN1CCOCC1: 409
- COc1cc2nccc(Oc3ccc(NC(=O)Nc4cc(C)on4)c(Cl)c3)c2cc1OC: 449
- O=C1\C=C(/OC2=C1C=CC=C2C3=CC=CC=C3)N4CCOCC4: 392
- COc1ccc2c(c[n+](C)c3c4cc5c(cc4ccc23)OCO5)c1OC: 447
- O=C(Nc1ccc(OC(F)(F)F)cc1)c1sccc1NCc1ccnc2ccccc12: 388
- CCN1CCCC1CNC(=O)c1cc(S(=O)(=O)CC)c(N)cc1OC (stereo not drawn): 459
- CNC(=O)[C@H](Cc1ccccc1)NC(=O)[C@H](CC(C)C)[C@H](CSc1cccs1)C(=O)NO: 402
- C[C@]\1(CCS\C(=N1)N)C2=CC(=C(F)C=C2F)C3=CN=CN=C3: 359
- CN(C)CCOC(c1ccccc1)c1ccccc1: 459
- CC(C)NCC(O)c1ccc(O)c(O)c1 (stereo not drawn): 389
- CCC(=O)O[C@@]1([C@@H](C)C[C@H]2[C@@H]3CCC/4=C/C(=O)/C=C\[C@]4(C)[C@@]3(F)[C@@H](O)C[C@]12C)C(=O)CCl: 467
- CO[C@H]1C[C@@H]2CC[C@@H](C)[C@@](O)(O2)C(=O)C(=O)N2CCCC[C@H]2C(=O)O[C@H]([C@H](C)C[C@@H]2CC[C@@H](OP(C)(C)=O)[C@H](OC)C2)CC(=O)[C@H](C)/C=C(\C)[C@@H](O)[C@@H](OC)C(=O)[C@H](C)C[C@H](C)/C=C/C=C/C=C/1C: 462
- Fc1ccc(CNc2ncnc3ccc(F)cc23)cc1: 452
- CN1[C@@H]2CCC[C@H]1C[C@@H](NC(=O)c1nn(C)c3ccccc13)C2.Cl: 466
- NC(=O)N1c2ccccc2CC(=O)c2ccccc21: 444
- N[C@@H](C(=O)N[C@H]1[C@H]2SC\C(=C(/N2C1=O)C(O)=O)Cl)C3=CC=CC=C3: 430
- COc1ccc(Cc2nccc3cc(OC)c(OC)cc23)cc1OC: 458

----------
Below, each entry is listed alongside its reported cell viability.
Test system: SEM cells
Assay Method Text: cell viability relative to DMSO control; higher = less cytotoxic
Condition Set: RPMI 5 mM glucose + 10% FBS; 48 h; 0.000781 µM
Reported Property: cell viability (%)

- CCCCN(CCCC)CCC(O)c1cc2c(Cl)cc(Cl)cc2c2cc(C(F)(F)F)ccc12 (stereo not given): 109
- COc1cc2nccc(Oc3ccc(NC(=O)Nc4ccc(F)cc4F)c(F)c3)c2cc1OC: 118
- Cc1ccc(-n2nc(C(C)(C)C)cc2NC(=O)Nc2ccc(OCCN3CCOCC3)c3ccccc23)cc1: 96.6
- Cc1[nH]c(/C=C2\C(=O)Nc3ccc([S+](=O)([O-])N(C)c4cccc(Cl)c4)cc32)c(C)c1C(=O)N1CCN(C)CC1: 98.4
- CCOC(=O)Nc1ccc(NCc2ccc(F)cc2)cc1N: 115
- CC#C[C@]1(O)CC[C@H]2[C@@H]/3CCC/4=C/C(=O)CCC4=C3[C@H](C[C@]12C)C5=CC=C(C=C5)N(C)C: 76
- O=C1\C=C(/OC2=C1C=CC=C2C3=CC=CC=C3)N4CCOCC4: 71.7
- O=C1NC(=O)[C@@H](c2cn3c4c(cccc24)CCC3)[C@@H]1c1c[nH]c2ccccc12: 117
- CO[C@H]1C[C@@H]2CC[C@@H](C)[C@@](O)(O2)C(=O)C(=O)N2CCCC[C@H]2C(=O)O[C@H]([C@H](C)C[C@@H]2CC[C@@H](OP(C)(C)=O)[C@H](OC)C2)CC(=O)[C@H](C)/C=C(\C)[C@@H](O)[C@@H](OC)C(=O)[C@H](C)C[C@H](C)/C=C/C=C/C=C/1C: 87.7
- CN(C)Cc1ccc(-c2nc3cccc4c3n2CCNC4=O)cc1: 103

----------
Test system: NOMO1
Assay Method Text: cell viability relative to DMSO control; higher = less cytotoxic
Condition Set: HPLM + 10% dialyzed FBS; 48 h; 1.71 µM
Reported Property: cell viability (%)

- Cc1ccc(-n2nc(C(C)(C)C)cc2NC(=O)Nc2ccc(OCCN3CCOCC3)c3ccccc23)cc1: 115
- C[C@]\1(CCS\C(=N1)N)C2=CC(=C(F)C=C2F)C3=CN=CN=C3: 91.3
- CC[C@]1(O)C[C@H]2CN(CCC3=C([NH]C4=C3C=CC=C4)[C@@](C2)(C(=O)OC)C5=CC6=C(C=C5OC)N(C=O)[C@H]7[C@](O)([C@H](OC(C)=O)[C@]8(CC)\C=C/C[N@@]9CC[C@]67[C@H]89)C(=O)OC)C1: 47
- CN1CCCN(C(=O)c2cccc(-c3ccc(/C=C4/C(=O)Nc5ccc(Cl)cc54)o3)c2)CC1: 103
- COc1cc2nccc(Oc3ccc(NC(=O)C4(C(=O)Nc5ccc(F)cc5)CC4)cc3)c2cc1OC: 104
- CNC(=O)c1cccc(-c2ccc3c(N4CCOC[C@@H]4C)nc(N4CCOC[C@@H]4C)nc3n2)c1: 67.3
- O=C1c2c(O)cccc2[C@H]([C@@H]2O[C@H](CO)[C@@H](O)[C@H](O)[C@H]2O)c2cc(CO)cc(O)c21: 102
- C[C@H](NC(=O)C(=O)Nc1ccccc1C(C)(C)C)C(=O)N[C@@H](CC(=O)O)C(=O)COc1c(F)c(F)cc(F)c1F: 141
- O=C1Nc2ccccc2/C1=C1\Nc2ccccc2C1=O: 96.4
- Cl.c1cnc2cc3c(cc2n1)C1CNCC3C1: 124
- O=C(O)[C@H](Cc1c[nH]c2ccccc12)N1C(=O)c2ccccc2C1=O: 103
